# credit: patent US5631401A

Target: Rat liver microsomal squalene synthase (Rattus norvegicus)
Construct: Rat liver microsomes, the source of enzyme, were prepared; from tissue; host or cells: rat liver microsomes
Sequence (Q02769 whole entry): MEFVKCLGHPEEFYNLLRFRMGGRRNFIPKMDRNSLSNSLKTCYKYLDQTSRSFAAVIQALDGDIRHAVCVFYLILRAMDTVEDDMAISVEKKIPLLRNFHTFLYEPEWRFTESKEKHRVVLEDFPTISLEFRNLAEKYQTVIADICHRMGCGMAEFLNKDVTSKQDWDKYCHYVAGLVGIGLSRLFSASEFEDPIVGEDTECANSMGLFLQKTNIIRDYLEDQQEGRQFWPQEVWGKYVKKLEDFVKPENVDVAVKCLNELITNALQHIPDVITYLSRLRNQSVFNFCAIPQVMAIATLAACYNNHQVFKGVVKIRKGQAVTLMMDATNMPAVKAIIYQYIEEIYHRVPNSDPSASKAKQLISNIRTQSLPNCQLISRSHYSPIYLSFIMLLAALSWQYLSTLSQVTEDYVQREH
Assay: In vitro inhibition of squalene synthase (rat liver microsomes, 3H-farnesyl diphosphate)
Format: biochemical
Settings: 10 μM (footnote *); read-out: % Inhibition at 10 μM (squalene synthase, values marked *)
ASSAY ENDPOINT: inhibition at 10 µM (%)

Guide cases for inhibition at 10 µM, answers given:
{"MOLECULE": "CC(C)N(Cc1ccc(Oc2ccccc2)cc1)C(=O)[C@H]1[C@H](C(=O)O)[C@H](C(=O)N(Cc2ccc(Oc3ccccc3)cc2)C(C)C)[C@H]1C(=O)O [Example 24]", "EXPERIMENTAL RESULT": 85}
{"MOLECULE": "O=C(O)[C@H]1[C@H](C(=O)N(Cc2ccccc2)Cc2ccc(Cl)cc2)[C@H](C(=O)O)[C@H]1C(=O)N(Cc1ccccc1)Cc1ccc(Cl)cc1 [Example 34]", "EXPERIMENTAL RESULT": 29}
{"MOLECULE": "CCCN(Cc1ccc(Cc2ccccc2)cc1)C(=O)[C@H]1[C@H](C(=O)O)[C@H](C(=O)N(CCC)Cc2ccc(Cc3ccccc3)cc2)[C@H]1C(=O)O [Example 26]", "EXPERIMENTAL RESULT": 33}
{"MOLECULE": "O=C(O)[C@H]1[C@H](C(=O)N(Cc2ccccc2)Cc2ccccc2)[C@H](C(=O)O)[C@H]1C(=O)N(Cc1ccccc1)Cc1ccccc1 [Example 33]", "EXPERIMENTAL RESULT": 43}

I = C#CCN(Cc1ccc(Oc2ccccc2)cc1)C(=O)[C@H]1[C@H](C(=O)O)[C@H](C(=O)N(CC#C)Cc2ccc(Oc3ccccc3)cc2)[C@H]1C(=O)O [Example 28]
II = CN(Cc1ccc(Oc2ccc(F)cc2)cc1)C(=O)[C@H]1[C@H](C(=O)O)[C@H](C(=O)N(C)Cc2ccc(Oc3ccc(F)cc3)cc2)[C@H]1C(=O)O [Example 21]
III = CCCN(Cc1ccc(Oc2ccccc2)cc1)C(=O)[C@H]1[C@H](C(=O)O)[C@H](C(=O)N(CCC)Cc2ccc(Oc3ccccc3)cc2)[C@H]1C(=O)O [Example 18]
Q. Please list the entries, largest inhibition at 10 µM first. Form field (ranking): labels in requested order.
A. III, I, II

----------
Target: Rat brain protein farnesyltransferase (Rattus norvegicus, UniProt Q02293+Q04631)
Construct: The enzyme was purified according to Reiss, Y., et al., Cell, 62: 81-88 (1990), utilizing steps one through three; from tissue; host or cells: rat brain
Test: In vitro inhibition of protein farnesyltransferase (biotin-lamin substrate, scintillation proximity assay)
Type: biochemical
Conditions: 10 μM; compared to uninhibited control
ASSAY ENDPOINT: inhibition at 10 µM (%)

{"COMPOUND": "CCCN(Cc1ccc(Oc2ccco2)cc1)C(=O)C1C(C(=O)O)C(C(=O)N(CCC)Cc2ccc(Oc3ccco3)cc2)C1C(=O)O (stereo not drawn) [Example 54]", "inhibition at 10 µM [%]": 59}
{"COMPOUND": "O=C(O)[C@H]1[C@H](C(=O)N(Cc2ccccc2)Cc2ccc(Oc3ccccc3)cc2)[C@H](C(=O)O)[C@H]1C(=O)N(Cc1ccccc1)Cc1ccc(Oc2ccccc2)cc1 [Example 16]", "inhibition at 10 µM [%]": 98}
{"COMPOUND": "CCCN(Cc1ccc(Nc2ccccc2)cc1)C(=O)C1C(C(=O)O)C(C(=O)N(CCC)Cc2ccc(Nc3ccccc3)cc2)C1C(=O)O (stereo not drawn) [Example 62]", "inhibition at 10 µM [%]": 69}
